Test system: Mycobacterium tuberculosis
Assay: Antimycobacterial activity against Mycobacterium tuberculosis H37Rv assessed as reduction in colony forming unit at 1 to 10 ug/ml incubated for 7 days in nutrient starvation medium by alamar blue based serial dilution method
Format: functional
Conditions: dose 1-10 µg/ml; time 7 day
// boundary case: fold change (FC) equal to 2 maps to Condition not met; strictly smaller maps to Condition met

>  <entry smiles>
Cc1cccnc1NC(=S)Nc1ccc(Cl)cc1Cl

>  <assay system>
Mycobacterium tuberculosis

>  <class>
Condition not met

$$$$
>  <entry smiles>
NNC(=O)c1ccncc1

>  <assay system>
Mycobacterium tuberculosis

>  <class>
Condition met

$$$$
>  <entry smiles>
O=[N+]([O-])c1ccc(NC(=S)NCc2ccccc2Cl)cc1

>  <assay system>
Mycobacterium tuberculosis

>  <class>
Condition not met

$$$$
>  <entry smiles>
CO[C@H]1/C=C/O[C@@]2(C)Oc3c(C)c(O)c4c(O)c(c(/C=N/N5CCN(C)CC5)c(O)c4c3C2=O)NC(=O)/C(C)=C\C=C\[C@H](C)[C@H](O)[C@@H](C)[C@@H](O)[C@@H](C)[C@H](OC(C)=O)[C@@H]1C

>  <assay system>
Mycobacterium tuberculosis

>  <class>
Condition met

$$$$

====

Assay: Cytotoxicity against mouse RAW264.7 cells assessed as reduction in cell viability at 50 ug/ml incubated for 72 to 96 hrs by MTT assay
Format: cell-based
Conditions: at 50 µg/mL, time 72-96 hrs, read-out: INH
Entries and their measured cytotoxicity at 50 ug/ml follow.

>  <entry smiles>
O=[N+]([O-])c1ccc(NC(=S)NCc2ccccc2Cl)cc1

>  <units text>
%

>  <cytotoxicity at 50 ug/ml>
29.9

$$$$
>  <entry smiles>
Cc1cccnc1NC(=S)Nc1ccc(Br)cc1

>  <units text>
%

>  <cytotoxicity at 50 ug/ml>
30.8

$$$$
>  <entry smiles>
Cc1cccnc1NC(=S)Nc1ccc(I)cc1

>  <units text>
%

>  <cytotoxicity at 50 ug/ml>
31.2

$$$$
>  <entry smiles>
O=[N+]([O-])c1ccc(NC(=S)NCc2ccccc2Br)cc1

>  <units text>
%

>  <cytotoxicity at 50 ug/ml>
24.9

$$$$
>  <entry smiles>
Cc1cccnc1NC(=S)Nc1ccc(Cl)cc1Cl

>  <units text>
%

>  <cytotoxicity at 50 ug/ml>
34

$$$$
